ASSAY TARGET: aldose reductase (Bos taurus, UniProt P16116)
Construct: partially purified aldose reductase derived from bovine lenses; from tissue; host or cells: bovine lenses
ASSAY NOTES: Aldose reductase inhibitory activity
Assay type: biochemical, bovine (lenses)
SETTINGS: substrate glucose (5.0 × 10^-2 M); partially purified bovine lens enzyme
MEASURED ATTRIBUTE: IC50 (nM)
Express the result in nM but write the number alone.

Reported IC50 ( O=CN[C@@H](Cc1ccc(O)c(-c2cc(C[C@H](NC=O)C(=O)O)ccc2O)c1)C(=O)O ) = 2640
